# Tested on: MCF-7 (ER+, Her2−) human breast cancer cells
# test-summary: MTT cell viability assay, MCF-7 cells
# Format: cell-based
# assay-conditions: MCF7, 24 h, read-out: IC50 on cell viability, MCF-7 (ER+, Her2−)
measured-attribute: IC50

# annotated cases, reported IC50 shown
- C=C1C(=O)OC2CC3=C[C@@H](C/C(C)=C/C(OC(=O)C=C(C)CCC=C(C)C)[C@H]12)OC3=O (stereo partly drawn): > 7.5 µM
- C=C1C(=O)OC2CC3=C[C@@H](C/C(C)=C/C(OC(=O)/C=C/c4cccc(OC(F)(F)F)c4)[C@H]12)OC3=O (stereo partly drawn): > 7.5 µM

Problem: Which IC50 is listed for C=C1C(=O)OC2CC3=C[C@@H](C/C(C)=C/C(OC(=O)[C@H](C)c4ccc5cc(OC)ccc5c4)[C@H]12)OC3=O (stereo partly drawn) ?
Result: > 7.5 µM
